These entries and their values trace back to patent US20140296146A1.

# assayed_system: T1, h-FXIIa (human), P00748
# T1 chain: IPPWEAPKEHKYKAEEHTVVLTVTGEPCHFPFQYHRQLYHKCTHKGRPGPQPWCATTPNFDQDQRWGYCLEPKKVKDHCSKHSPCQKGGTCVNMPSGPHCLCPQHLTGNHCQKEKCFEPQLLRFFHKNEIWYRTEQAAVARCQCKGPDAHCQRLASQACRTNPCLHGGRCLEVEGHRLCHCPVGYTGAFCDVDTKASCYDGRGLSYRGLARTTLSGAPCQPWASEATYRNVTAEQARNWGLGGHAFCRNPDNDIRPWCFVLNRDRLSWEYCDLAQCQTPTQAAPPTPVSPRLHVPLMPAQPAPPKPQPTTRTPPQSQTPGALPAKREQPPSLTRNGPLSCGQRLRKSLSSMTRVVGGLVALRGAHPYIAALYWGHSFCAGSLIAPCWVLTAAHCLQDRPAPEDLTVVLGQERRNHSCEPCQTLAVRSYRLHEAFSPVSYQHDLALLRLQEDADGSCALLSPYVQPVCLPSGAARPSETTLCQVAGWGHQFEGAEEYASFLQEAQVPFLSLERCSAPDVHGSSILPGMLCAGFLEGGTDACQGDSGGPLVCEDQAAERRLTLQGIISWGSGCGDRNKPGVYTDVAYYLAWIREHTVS
# protocol: S2302 hydrolysis by h-FXIIa (5.01 nM); inhibitor kept at -80° C.
measure: pKi
When answering, recall that pKi equals minus log10 of the concentration in mol/L, and write that number alone.

Query block: Which value of pKi has been reported for RVCPRILMKCKKDSDCLAECVCLEHGYCG (modifications not checked) [TICA 1] in the records?
Result block: 7.59
